Target: catalytic domain of human collagenase-3 (MMP-13) (Homo sapiens, UniProt P45452)
Construct: Determining the enzymic activity of the catalytic domain of human collagenase-3 (MMP-13)
Assay: Enzymic activity of the catalytic domain of human collagenase-3 (MMP-13), fluorogenic substrate
Settings: activated with APMA, pH 7.5, read-out: IC50 MMP13
value.type: IC50 (nM)

A = O=C(NCc1cc(F)cc(F)c1)c1cc(C(=O)NCc2cc(F)cc(F)c2)ncn1
B = O=C(NCc1ccc(Cl)cc1)c1cc(C(=O)NCc2ccc(Cl)cc2)ncn1
Prompt: I'm curious, which of these has a smaller IC50 number: A or B ? Write the label of whichever entry you select.
Completion: A
